Test: folding enthalpy; higher = less favourable; fluorescence melt of hairpins on a sequencing array, two-state fit
Settings: sodium 0.088 M
For each entry below, report its folding enthalpy value.
One number for each entry, in kcal/mol.

Look over these answered cases.
chain	folding enthalpy, kcal/mol
GCCATAGGAAACTGTGGC ((((.((....)).))))	-39.1
GATCTGTTCCAGATC ((((((...))))))	-30.4

q: Return reported folding enthalpy; argument: GCGTTGCGAAAGCGCCGC (((..((....))..)))
a: -14.8

###

Give folding enthalpy for every item shown.
Assay: folding enthalpy; higher = less favourable; fluorescence melt of hairpins on a sequencing array, two-state fit
Settings: sodium 0.088 M
One number for each entry, in kcal/mol.

Examples with answers:
chain	unitDescriptor	folding enthalpy
GACCTGCGAAAGCAGTC (((.(((....))))))	kcal/mol	-12.2
GTGACGGGAAACCGCCAC (((.(((....))).)))	kcal/mol	-42.1
GGTAGCCGAAAGGCACC (((.(((....))))))	kcal/mol	-18.7
CGGAATCGGAAACGACCG (((..(((....))))))	kcal/mol	-16.6
GCGTACGAAAGTACACGC ((((((....)))..)))	kcal/mol	-19.1

// batch mode: one folding enthalpy value per listed entry
1. GAGTGCGCGAAAGCGCTC (((..(((....))))))
2. GCATCGCGAAAGCTAAGC ((.(.((....)).).))
3. GACCTGCGAAAGCATGTC (((.(((....))).)))
4. GCACCGCCGAAAGGCTGC (((..(((....))))))
5. GCAATGCGAAAGCGTCGC ((.(.((....)).).))
6. GAATCACGAAAGTGGTTC (((.(((....))).)))

a:
1. -5.97
2. -6.7
3. -28.4
4. -14.7
5. -19.3
6. -40.3

For every item below, please supply its folding enthalpy.
1. GATCGGGGAAACCTGGTC ((.(.((....)).).))
2. GCTAATGGAAACATTAGC (((((((....)))))))
3. GTTGTGGGAAACTACAAC (((((.(....).)))))
4. GATCGCTGGGGCGATC ((((((....))))))
5. CAACCAGAAATGGTTG ((((((....))))))

a:
[-22.6, -45.4, -36.1, -32.2, -29.4]
